- MEASUREMENT NOTES: self-splicing fitness, log relative to wild type (ln ratio); higher = more splicing; Tetrahymena group I intron in knt gene, E. coli kanamycin selection, DiMSum; sequences stand for … in CUCUCU…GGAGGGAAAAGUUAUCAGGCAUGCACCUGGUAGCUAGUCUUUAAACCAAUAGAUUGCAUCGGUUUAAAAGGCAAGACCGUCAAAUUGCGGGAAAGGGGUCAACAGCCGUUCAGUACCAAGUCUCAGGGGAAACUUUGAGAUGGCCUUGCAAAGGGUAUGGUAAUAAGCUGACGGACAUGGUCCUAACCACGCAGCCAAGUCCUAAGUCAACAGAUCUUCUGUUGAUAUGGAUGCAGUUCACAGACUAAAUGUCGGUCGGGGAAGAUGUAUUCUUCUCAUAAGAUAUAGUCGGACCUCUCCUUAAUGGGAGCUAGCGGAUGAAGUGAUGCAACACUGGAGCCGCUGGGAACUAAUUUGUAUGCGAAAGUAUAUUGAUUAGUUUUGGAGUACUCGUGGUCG;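 note: selection with 25 µg/mL kanamycin versus none on LB agar overnight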
- MEASUREMENT SETUP: 30 °C

| QUERY SEQUENCE | self-splicing fitness (ln) |
| --- | --- |
| GAGGAGCAAUAUUACGCAUU | -2.99 |
| CCGGAGCAAUAUUACGGAAU | -2.95 |
| ACUUAGCAAUAUUACGACCA | -0.584 |

###

- MEASUREMENT NOTES: self-splicing fitness, log relative to wild type (ln ratio); higher = more splicing; Tetrahymena group I intron in knt gene, E. coli kanamycin selection, DiMSum; sequences stand for … in CUCUCU…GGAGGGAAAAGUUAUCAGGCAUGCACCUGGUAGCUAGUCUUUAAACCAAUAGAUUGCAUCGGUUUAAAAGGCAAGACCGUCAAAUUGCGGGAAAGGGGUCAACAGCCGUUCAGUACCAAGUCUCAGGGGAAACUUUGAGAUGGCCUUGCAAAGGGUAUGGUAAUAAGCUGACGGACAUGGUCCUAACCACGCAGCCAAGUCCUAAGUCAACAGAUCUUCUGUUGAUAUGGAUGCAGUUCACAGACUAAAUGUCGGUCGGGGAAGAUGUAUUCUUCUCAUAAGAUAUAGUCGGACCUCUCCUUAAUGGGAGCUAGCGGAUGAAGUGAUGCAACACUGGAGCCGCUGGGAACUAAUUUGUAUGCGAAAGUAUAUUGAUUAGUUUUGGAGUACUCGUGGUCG
- MEASUREMENT SETUP: 30 °C
Decide by self-splicing fitness (ln): equal to or exceeding -2 means True, less means False.

| QUERY SEQUENCE | CLASS NAME |
| --- | --- |
| AGCCAGCAAUAUUACGCAGG | False |
| AAUAAGCAAUAUUACGUCCA | True |
| ACGAAGCAAUAUUACGUGAA | False |
| CAACAGCAAUAUUACGGGCC | False |
| AAAGAGCAAUAUUACGUCGA | False |
| CGACAGCAAUAUUACGCACC | True |
| UUAUAGCAAUAUUACGGGUG | True |
| UAUUAGCAAUAUUACGAAGU | False |
| CAGCAGCAAUAUUACGGUGC | False |
| CUUAAGCAAUAUUACGGGCG | True |
| AGCCAGCAAUAUUACGGAGU | False |
| CGCCAGCAAUAUUACGGAUA | True |
| AAACAGCAAUAUUACGCUAG | True |
| UCAGAGCAAUAUUACGCGAU | False |
| GGAAAGCAAUAUUACGCCCU | True |
| CCGAAGCAAUAUUACGACGU | True |
| UGCAAGCAAUAUUACGGAGU | False |
| CCUUAGCAAUAUUACGUGCU | False |
| ACCCAGCAAUAUUACGAAAC | False |
| CACAAGCAAUAUUACGUUAG | True |
| GUAAAGCAAUAUUACGAGUU | True |
| AACGAGCAAUAUUACGCUUC | False |
| UCUGAGCAAUAUUACGAAGU | False |
| AAACAGCAAUAUUACGGAAA | False |
| UAUUAGCAAUAUUACGACGA | True |
| CAACAGCAAUAUUACGAACG | True |
| CAUCAGCAAUAUUACGGUUA | True |
| GGGAAGCAAUAUUACGGGCG | True |
| GCCGAGCAAUAUUACGGGUA | True |
| ACCGAGCAAUAUUACGGCGG | False |
| CUCUAGCAAUAUUACGCUGA | True |
| AGCAAGCAAUAUUACGACAG | False |
| UUCGAGCAAUAUUACGUGUC | False |
| UACGAGCAAUAUUACGUGCG | False |
| GGACAGCAAUAUUACGUCGA | True |
| CAGAAGCAAUAUUACGCUCA | True |
| AAGCAGCAAUAUUACGAUCC | True |
| UGUCAGCAAUAUUACGGAAG | False |
| CUAAAGCAAUAUUACGUGUU | False |
| UCUAAGCAAUAUUACGUGUU | False |
| UUUUAGCAAUAUUACGUCAG | False |
| AGUCAGCAAUAUUACGAUUG | True |
| UGUCAGCAAUAUUACGGAAA | True |
| UGUGAGCAAUAUUACGAAGC | False |
| CGUGAGCAAUAUUACGAUGU | True |
| GGUAAGCAAUAUUACGGUGU | True |
| CCAAAGCAAUAUUACGAUUA | False |
| GUUUAGCAAUAUUACGGUCU | True |
